- studyTarget: T1, Recombinant human MASP1 enzyme (fragment corresponding to amino acids 297-699, C-terminal His Tag) (human, UniProt P48740 297-699)
- T1 sequence: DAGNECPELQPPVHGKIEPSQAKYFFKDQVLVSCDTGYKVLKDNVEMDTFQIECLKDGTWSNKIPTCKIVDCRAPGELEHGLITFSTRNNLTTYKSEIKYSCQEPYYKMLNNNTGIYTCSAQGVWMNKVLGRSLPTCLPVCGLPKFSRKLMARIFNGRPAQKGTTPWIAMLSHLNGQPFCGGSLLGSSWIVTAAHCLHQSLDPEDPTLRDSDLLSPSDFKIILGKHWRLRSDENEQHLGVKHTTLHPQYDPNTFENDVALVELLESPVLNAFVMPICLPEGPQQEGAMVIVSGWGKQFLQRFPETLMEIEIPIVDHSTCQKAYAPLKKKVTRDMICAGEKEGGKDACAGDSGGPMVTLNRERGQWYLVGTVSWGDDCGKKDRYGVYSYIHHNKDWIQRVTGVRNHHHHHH
- assayOverview: cell-based or functional assay
Bridge positions count the residues as written; N and C are the ends. Square brackets hold non-standard residues; d marks the D form. Ends that are not written are not given here. Oic = O=C(O)[C@@H]1C[C@@H]2CCCC[C@@H]2N1; Chg = N[C@H](C(=O)O)C1CCCCC1; Pen = CC(C)(S)[C@H](N)C(=O)O; Orn = NCCC[C@H](N)C(=O)O
Parameter human MASP1 IC50: see the listing below.
experimentalReadout: human MASP1 IC50 (nM)

>>> endpointvalue("AICSRSNPPI[Pen]IPD-NH2 (disulfide 3-11; N-terminus assumed; SMILES CC[C@H](C)[C@H](NC(=O)[C@H](C)N)C(=O)N[C@H]1CSSC(C)(C)[C@@H](C(=O)N[C@H](C(=O)N2CCC[C@H]2C(=O)N[C@@H](CC(=O)O)C(N)=O)[C@@H](C)CC)NC(=O)[C@H]([C@@H](C)CC)NC(=O)[C@@H]2CCCN2C(=O)[C@@H]2CCCN2C(=O)[C@H](CC(N)=O)NC(=O)[C@H](CO)NC(=O)[C@H](CCCNC(=N)N)NC(=O)[C@H](CO)NC1=O) [AIC+SRSNPPI-(Pen)+IPD-NH2]")
9.4
>>> endpointvalue("[Orn]ICSRSLPP[Chg]CIPD-OH (disulfide 3-11; N-terminus assumed; SMILES CC[C@H](C)[C@H](NC(=O)[C@@H](N)CCCN)C(=O)N[C@H]1CSSC[C@@H](C(=O)N[C@H](C(=O)N2CCC[C@H]2C(=O)N[C@@H](CC(=O)O)C(=O)O)[C@@H](C)CC)NC(=O)[C@H](C2CCCCC2)NC(=O)[C@@H]2CCCN2C(=O)[C@@H]2CCCN2C(=O)[C@H](CC(C)C)NC(=O)[C@H](CO)NC(=O)[C@H](CCCNC(=N)N)NC(=O)[C@H](CO)NC1=O) [(Orn)-IC+SRSLPP-(Chg)-C+IPD-OH]")
6.9
>>> endpointvalue("[(2S)‑2((Amino)-2-(tetrahydro-2H-pyran-4-yl))acetic acid]ICSRSLP[Oic]ICI-OH (disulfide 3-11) [((2S)-2[(Amino)-2-(tetrahydro-2H-pyran-4-yl)]acetic acid)-IC+SRSLP-(Oic)-IC+I-OH]")
4.7

Values compiled from patent US20210246166A1.
